Attribution: the NIST ThermoML archive (doi:10.1016/j.jct.2012.06.009)

# EXPERIMENT_SUMMARY: activity coefficient (dimensionless); of the first substance listed, at infinite dilution; xn = mol fraction of the nth substance listed
# CONDITIONS: 358.22 K; 101 kPa; Liquid; Chromatography; x1 = 0
Measured activity coefficient, listed per entry.
Number only, please.

Known results for compounds:
{"COMPOUND": "CCOC(C)=O [ethyl acetate] + CCCCCCCCCCCCCCCC(=O)O", "activity coefficient": 1.16}
{"COMPOUND": "Cc1ccccc1 [toluene] + CCCCCCCCCCCCCCCC(=O)O", "activity coefficient": 0.934}
{"COMPOUND": "C1CCCCC1 [cyclohexane] + CCCCCCCCCCCCCCCC(=O)O", "activity coefficient": 1.01}
{"COMPOUND": "C=CCCCC [hex-1-ene] + CCCCCCCCCCCCCCCC(=O)O", "activity coefficient": 1.2}
{"COMPOUND": "Clc1ccccc1 [chlorobenzene] + CCCCCCCCCCCCCCCC(=O)O", "activity coefficient": 0.974}

What the record says about CCCCCC [hexane] + CCCCCCCCCCCCCCCC(=O)O : activity coefficient is 1.3

For reference, reported activity coefficient for ClC(Cl)Cl [trichloromethane] + CCCCCCCCCCCCCCCC(=O)O stands at 0.759

Please fill in: activity coefficient reported for ClCc1ccccc1 [(chloromethyl)benzene] + CCCCCCCCCCCCCCCC(=O)O = 1.57

Entry ClC=C(Cl)Cl [trichloroethene] + CCCCCCCCCCCCCCCC(=O)O — recorded activity coefficient = 0.831

COc1ccccc1 [anisole] + CCCCCCCCCCCCCCCC(=O)O has a reported activity coefficient of 1.25
